Source: ChEMBL document CHEMBL2169778

Molecular target: Signal transducer and activator of transcription 1-alpha/beta (Homo sapiens, UniProt P42224)
Sequence (P42224 whole entry, the tested form may be a part): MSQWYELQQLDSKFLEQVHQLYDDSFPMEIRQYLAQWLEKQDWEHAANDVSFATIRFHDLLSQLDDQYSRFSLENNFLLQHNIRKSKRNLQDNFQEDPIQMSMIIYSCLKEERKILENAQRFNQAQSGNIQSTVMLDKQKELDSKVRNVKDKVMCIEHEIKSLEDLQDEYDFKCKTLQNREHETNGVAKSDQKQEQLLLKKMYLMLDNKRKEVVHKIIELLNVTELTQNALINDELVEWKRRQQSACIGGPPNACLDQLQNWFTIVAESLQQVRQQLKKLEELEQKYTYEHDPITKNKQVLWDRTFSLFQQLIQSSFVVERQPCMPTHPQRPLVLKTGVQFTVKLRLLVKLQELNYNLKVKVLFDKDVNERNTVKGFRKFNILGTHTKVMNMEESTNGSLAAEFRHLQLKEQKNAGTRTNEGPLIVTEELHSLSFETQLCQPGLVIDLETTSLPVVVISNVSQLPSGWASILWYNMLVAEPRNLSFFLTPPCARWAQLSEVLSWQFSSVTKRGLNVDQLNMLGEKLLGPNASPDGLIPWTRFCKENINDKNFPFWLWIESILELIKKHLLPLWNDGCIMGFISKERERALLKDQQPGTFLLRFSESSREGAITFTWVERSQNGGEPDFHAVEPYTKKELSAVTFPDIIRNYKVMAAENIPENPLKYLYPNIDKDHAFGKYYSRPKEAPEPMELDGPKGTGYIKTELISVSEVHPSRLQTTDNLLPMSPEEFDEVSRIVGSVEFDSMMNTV
Assay: Inhibition of STAT1 SH2 domain assessed as inhibition of STAT1 SH2-phosphotyrosine interaction by AlphaScreen assay
measuredParameter: pIC50
Keep in mind that pIC50 stands for -log10 of concentration in molar terms.

Ask: Given the entry `C1=Cc2nc1cc1ccc([nH]1)c(-c1ccccc1)c1nc(cc3ccc([nH]3)c2-c2ccccc2)C=C1` , report its measured pIC50.
Result: 5.00

###

Target: Signal transducer and activator of transcription 3 (Homo sapiens)
Sequence (P40763 whole entry, the tested form may be a part): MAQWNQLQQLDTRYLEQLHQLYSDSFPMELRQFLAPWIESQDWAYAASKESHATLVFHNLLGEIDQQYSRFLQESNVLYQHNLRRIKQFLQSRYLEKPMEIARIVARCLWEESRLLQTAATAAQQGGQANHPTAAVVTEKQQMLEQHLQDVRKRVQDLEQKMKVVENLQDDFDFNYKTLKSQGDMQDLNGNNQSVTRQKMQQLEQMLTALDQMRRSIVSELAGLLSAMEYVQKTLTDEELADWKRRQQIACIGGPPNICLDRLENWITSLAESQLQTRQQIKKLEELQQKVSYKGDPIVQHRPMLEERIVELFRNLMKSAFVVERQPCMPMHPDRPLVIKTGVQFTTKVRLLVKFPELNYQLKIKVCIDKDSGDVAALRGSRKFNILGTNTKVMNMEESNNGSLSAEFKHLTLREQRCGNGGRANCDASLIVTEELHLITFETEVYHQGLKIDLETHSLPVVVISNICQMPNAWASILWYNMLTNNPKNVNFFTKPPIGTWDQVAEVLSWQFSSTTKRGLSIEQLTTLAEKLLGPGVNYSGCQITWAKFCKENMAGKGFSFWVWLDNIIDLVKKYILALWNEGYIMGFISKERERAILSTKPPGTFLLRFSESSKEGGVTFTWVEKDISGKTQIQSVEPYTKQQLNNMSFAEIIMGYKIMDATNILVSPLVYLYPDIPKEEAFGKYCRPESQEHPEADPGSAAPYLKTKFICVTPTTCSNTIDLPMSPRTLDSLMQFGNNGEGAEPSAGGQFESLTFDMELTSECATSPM
Test: Inhibition of STAT3 SH2 domain assessed as inhibition of STAT3 SH2-phosphotyrosine interaction after 15 mins by fluorescence polarization assay
measuredParameter: Ki (µM)
# unit: µM | format: bare number

* Cc1ccc(S(=O)(=O)N(C)CC(=O)N(Cc2ccc(C3CCN(c4ccc(C#N)cc4)CC3)cc2)c2ccc(C(=O)O)c(O)c2)cc1 | 18.7

Note: attention shifts to another entry.
Ask: Recorded Ki for `Cc1ccc(S(=O)(=O)OCC(=O)N(Cc2ccc(C3CCCCC3)cc2)c2ccc(C(=O)O)c(O)c2)cc1` with Signal transducer and activator of transcription 3 (Homo sapiens), please?
Result: 50
